- Target entity: TrkB (Homo sapiens (Human), UniProt Q16620 32-430)
- Sequence (Q16620 32-430 limits assumed): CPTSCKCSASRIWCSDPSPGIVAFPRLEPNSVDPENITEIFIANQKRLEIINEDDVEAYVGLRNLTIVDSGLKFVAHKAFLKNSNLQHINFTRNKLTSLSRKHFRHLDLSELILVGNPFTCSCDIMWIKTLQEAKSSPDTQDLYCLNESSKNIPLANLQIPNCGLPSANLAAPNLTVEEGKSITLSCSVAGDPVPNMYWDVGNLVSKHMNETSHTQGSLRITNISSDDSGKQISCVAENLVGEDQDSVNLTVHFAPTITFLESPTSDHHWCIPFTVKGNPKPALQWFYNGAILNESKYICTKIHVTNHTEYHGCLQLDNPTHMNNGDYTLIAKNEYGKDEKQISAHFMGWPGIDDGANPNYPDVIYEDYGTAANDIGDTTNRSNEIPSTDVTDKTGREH
- Experimental details: koff of Fab at 25 C; T1/2=Log2/koff
Readout label: T1/2
Answer with the value and then the unit.

QUERY: Item under review: 10-F10 (Fab, V domains shown, Fab) VH: QVQLVQSGAEVKKPGASVKVSCKASGYTFTNYDIIWVRQAPGQGLEWMGYINPYNDGRKENEKFKGRVTMTRDTSTSTVYMELSSLRSEDTAVYYCARLLKYRRFRYYAIDYWGQGTTVTVSS VL: DIQMTQSPSSLSASVGDRVTITCRASENVYLNLAWYQQKPGKAPKLLIYAASNLQSGVPSRFSGSGSGTDFTFTISSLQPEDIATYYCQHFWGSPFTFGQGTKLEIK . Reported T1/2?
RESULT: 4.1 min

QUERY: Item under review: 7-B9 (Fab, V domains shown, Fab) VH: QVQLVQSGAEVKKPGASVKVSCKASGYTFTNYVILWVRQAPGQGLEWMGYINPYNDGTKYNEKFKGRVTMTRDTSTSTVYMELSSLRSEDTAVYYCARLLKYRRFSYYAIDVWGQGTTVTVSS VL: DIQMTQSPSSLSASVGDRVTITCRASENVYSNLAWYQQKPGKAPKLLIYAASNLQSGVPSRFSGSGSGTDFTFTISSLQPEDIATYYCQHFWYSPWTFGQGTKLEIK . Reported T1/2?
RESULT: 1.79 min

QUERY: Item under review: 11-F9 (Fab, V domains shown, Fab) VH: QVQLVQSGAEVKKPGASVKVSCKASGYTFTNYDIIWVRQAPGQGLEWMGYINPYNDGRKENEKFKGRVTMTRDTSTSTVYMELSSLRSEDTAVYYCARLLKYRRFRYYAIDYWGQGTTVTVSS VL: DIQMTQSPSSLSASVGDRVTITCRASENVYRNLAWYQQKPGKAPKLLIYAASNLQSGVPSRFSGSGSGTDFTFTISSLQPEDIATYYCQHFWYSPFTFGQGTKLEIK . Reported T1/2?
RESULT: 6.2 min
